// values below are reported Kd
Molecular target: T1, human TIGIT ECD with C-terminal polyhistidine tag (human, UniProt Q495A1 22-141)
T1 construct: in-house or Sino Biological; also called hTIGIT-HIS; human TIGIT-HIS
T1 sequence: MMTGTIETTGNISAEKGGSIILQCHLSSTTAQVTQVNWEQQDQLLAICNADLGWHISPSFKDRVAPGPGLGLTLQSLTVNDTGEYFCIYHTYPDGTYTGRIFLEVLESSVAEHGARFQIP
Test: SPR (ProteOn), Human TIGIT-His

CPA.9.083.H4(S241P) (antibody, human IgG4, V domains shown) VH: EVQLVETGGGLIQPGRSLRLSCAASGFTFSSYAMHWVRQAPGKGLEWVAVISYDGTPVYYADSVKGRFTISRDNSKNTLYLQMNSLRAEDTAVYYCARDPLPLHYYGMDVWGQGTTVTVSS VL: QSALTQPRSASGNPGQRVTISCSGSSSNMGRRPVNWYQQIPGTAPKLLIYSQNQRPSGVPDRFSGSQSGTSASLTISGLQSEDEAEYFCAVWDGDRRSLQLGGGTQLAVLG    1.7 pM
CHA.9.547.7.H4(S241P) (antibody, human IgG4 S228P, kappa, V domains shown, humanized hybridoma anti-TIGIT antibody, human IgG4) VH: EVQLVESGGGLVQPGGSLRLSCAASGFTFSSYIMSWVRQAPGKGLEWVATISGGGTNTYYADSVKGRFTISRDNSKNTLYLQMNSLRAEDTAVYYCAKWLLSYYAMDYWGQGTLVTVSS VL: DIQMTQSPSSLSASVGDRVTITCRASQNINVWLTWYQQKPGKAPKLLIYKASKSHTGVPSRFSGSGSGTDFTLTISSLQPEDFATYYCQQGQSYPYTFGQGTKLEIKR    35 pM

Shifting focus to the binder that follows.
Query: Kd; subject: CPA.9.086.H4(S241P) (antibody, human IgG4 S228P, lambda, V domains shown) VH: EVQLVETGGGLIQPGRSLRLSCAASGFTFSSYAMHWVRQAPGKGLEWVAVISYAGEVKYYADSVKGRFTISRDNSKNTLYLQMNSLRAEDTAVYYCARDPLPLHYYGMDVWGQGTTVTVSS VL: QSALTQPRSASGNPGQRVTISCSGSSSNMGRRPVNWYQQIPGTAPKLLIYSQNQRPSGVPDRFSGSQSGTSASLTISGLQSEDEAEYFCAVWDDIGRVLQLGGGTQLAVLG 2.3 pM
